Value source: paper PMC9962794

Biological target: LGC-58 (Caenorhabditis elegans, UniProt Q2WF65)
Construct: full-length untagged cDNA in KSM vector, cRNA in Xenopus laevis oocytes; pentameric, expressed alone
Sequence (Q2WF65 21-546): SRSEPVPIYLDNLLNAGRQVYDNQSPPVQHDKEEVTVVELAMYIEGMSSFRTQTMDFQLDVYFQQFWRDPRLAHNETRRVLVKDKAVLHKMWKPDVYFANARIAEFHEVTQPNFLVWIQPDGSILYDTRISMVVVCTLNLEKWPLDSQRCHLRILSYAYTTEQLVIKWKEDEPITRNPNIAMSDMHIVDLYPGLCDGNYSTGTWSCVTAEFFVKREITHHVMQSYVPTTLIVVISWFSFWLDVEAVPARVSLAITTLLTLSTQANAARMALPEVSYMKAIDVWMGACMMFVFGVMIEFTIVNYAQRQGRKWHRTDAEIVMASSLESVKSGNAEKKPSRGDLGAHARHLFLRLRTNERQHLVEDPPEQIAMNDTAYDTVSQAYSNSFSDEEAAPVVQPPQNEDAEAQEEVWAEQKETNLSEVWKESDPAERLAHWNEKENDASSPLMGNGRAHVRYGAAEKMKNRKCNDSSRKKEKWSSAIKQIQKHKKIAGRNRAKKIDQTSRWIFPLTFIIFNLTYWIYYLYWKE
Test: two-electrode voltage clamp, oocytes
Type: cell-based

compound smiles: C[N+](C)(C)CCO
EC50 [µM]: 15
//
compound smiles: CC(=O)OCC[N+](C)(C)C
EC50 [µM]: 41

* * *

Listed next: entries and their corresponding EC50.
Target: LGC-39 (Caenorhabditis elegans)
Construct: full-length cDNA by gene synthesis, KSM vector, cRNA in Xenopus laevis oocytes; homomeric pentameric channel
Assay: two-electrode voltage clamp, oocytes
Assay type: cell-based
Conditions: read-out: EC50

molecule: NC[C@H](O)c1ccc(O)cc1
unit text: µM
EC50: 921

molecule: CC(=O)OCC[N+](C)(C)C
unit text: µM
EC50: 1290

molecule: NCCc1ccc(O)cc1
unit text: µM
EC50: 686

molecule: NC1=NCC2c3ccccc3Cc3ccccc3N12 (stereo not shown) [epinastine]
unit text: µM
EC50: 10

* * *

Target: LGC-39 (Caenorhabditis elegans, UniProt O17402)
Construct: full-length cDNA by gene synthesis, KSM vector, cRNA in Xenopus laevis oocytes; homomeric pentameric channel
Sequence (O17402 22-563): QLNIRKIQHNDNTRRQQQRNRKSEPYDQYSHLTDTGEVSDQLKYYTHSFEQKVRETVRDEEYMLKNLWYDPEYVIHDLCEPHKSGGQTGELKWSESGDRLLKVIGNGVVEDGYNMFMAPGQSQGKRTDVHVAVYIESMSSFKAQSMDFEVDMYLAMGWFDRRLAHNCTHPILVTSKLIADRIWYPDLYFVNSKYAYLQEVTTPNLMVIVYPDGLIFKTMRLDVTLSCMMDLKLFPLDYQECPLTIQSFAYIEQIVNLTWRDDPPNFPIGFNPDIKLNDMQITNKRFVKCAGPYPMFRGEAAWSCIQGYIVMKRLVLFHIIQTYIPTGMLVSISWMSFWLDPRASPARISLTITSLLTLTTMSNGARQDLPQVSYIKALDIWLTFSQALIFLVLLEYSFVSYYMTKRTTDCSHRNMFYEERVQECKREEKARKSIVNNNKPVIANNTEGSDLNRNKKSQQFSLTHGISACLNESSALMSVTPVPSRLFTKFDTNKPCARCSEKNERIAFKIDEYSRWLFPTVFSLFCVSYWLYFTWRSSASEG
Assay: two-electrode voltage clamp, oocytes
Assay type: cell-based
pEC50: −log10 of the molar value.

compound smiles: O=C1C[C@@H]2OCC=C3CN4CC[C@]56c7ccccc7N1[C@H]5[C@H]2[C@H]3C[C@H]46
pEC50: 5.12

* * *

Listed next: entries and their corresponding pIC50.
Molecular target: LGC-39 (Caenorhabditis elegans, UniProt O17402)
Construct: full-length cDNA by gene synthesis, KSM vector, cRNA in Xenopus laevis oocytes; homomeric pentameric channel
Assay: two-electrode voltage clamp, oocytes
pIC50: −log10 of the molar value.

compound: NC1=NCC2c3ccccc3Cc3ccccc3N12 (centres unmarked) [epinastine]
assayed target: LGC-39 (Caenorhabditis elegans, UniProt O17402)
pIC50: 6.00

compound: COC(=O)[C@@H]1[C@H]2C[C@H]3c4[nH]c5ccccc5c4CCN3C[C@@H]2CC[C@@H]1O [yohimbine]
assayed target: LGC-39 (Caenorhabditis elegans, UniProt O17402)
pIC50: 5.40

* * *

Target: LGC-57 (Caenorhabditis elegans)
Construct: full-length untagged cDNA in KSM vector, cRNA in Xenopus laevis oocytes; pentameric, expressed alone
Sequence (Q09453 20-473): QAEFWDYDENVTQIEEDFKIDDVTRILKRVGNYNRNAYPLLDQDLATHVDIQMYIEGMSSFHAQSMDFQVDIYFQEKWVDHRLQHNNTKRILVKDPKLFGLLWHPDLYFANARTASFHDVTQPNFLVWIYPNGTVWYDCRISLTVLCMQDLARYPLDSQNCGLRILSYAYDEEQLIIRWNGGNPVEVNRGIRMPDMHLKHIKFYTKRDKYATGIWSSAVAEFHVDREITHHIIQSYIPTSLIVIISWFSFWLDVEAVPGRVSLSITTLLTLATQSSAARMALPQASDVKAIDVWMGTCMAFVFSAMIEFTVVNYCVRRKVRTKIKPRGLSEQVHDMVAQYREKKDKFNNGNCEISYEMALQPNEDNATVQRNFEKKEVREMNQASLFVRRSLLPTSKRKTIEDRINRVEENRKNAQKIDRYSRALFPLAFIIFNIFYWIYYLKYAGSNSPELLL
Test: two-electrode voltage clamp, oocytes
pEC50: −log10 of the molar value.
parameter: pEC50

compound smiles: CC(=O)OCC[N+](C)(C)C
parameter: pEC50
reported: 3.94
--
compound smiles: C[N+](C)(C)CCO
parameter: pEC50
reported: 4.66

* * *

Target: LGC-40 (Caenorhabditis elegans, UniProt Q22741)
Construct: full-length untagged cDNA in KSM vector, cRNA in Xenopus laevis oocytes; pentameric, expressed alone
Sequence (Q22741 23-494): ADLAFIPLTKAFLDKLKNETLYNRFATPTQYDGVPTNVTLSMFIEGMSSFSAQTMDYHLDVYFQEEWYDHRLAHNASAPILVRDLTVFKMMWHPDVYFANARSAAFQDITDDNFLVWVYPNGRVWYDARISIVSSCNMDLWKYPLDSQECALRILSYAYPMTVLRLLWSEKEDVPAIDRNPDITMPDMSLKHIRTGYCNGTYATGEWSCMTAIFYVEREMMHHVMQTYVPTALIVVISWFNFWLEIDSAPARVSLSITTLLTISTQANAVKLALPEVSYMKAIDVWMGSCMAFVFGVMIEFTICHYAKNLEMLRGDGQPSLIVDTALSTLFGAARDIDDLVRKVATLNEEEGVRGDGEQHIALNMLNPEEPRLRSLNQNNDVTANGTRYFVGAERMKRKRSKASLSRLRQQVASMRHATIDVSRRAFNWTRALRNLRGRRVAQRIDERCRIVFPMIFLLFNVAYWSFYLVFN
Assay: two-electrode voltage clamp, oocytes
pEC50: −log10 of the molar value.

compound: C[N+](C)(C)CCO [choline]
pEC50: 4.82
//
compound: CC(=O)OCC[N+](C)(C)C [acetylcholine]
pEC50: 3.93

* * *

Biological target: LGC-49 (Caenorhabditis elegans, UniProt Q21420)
Construct: full-length cDNA in KSM vector, cRNA in Xenopus laevis oocytes; homomeric pentameric channel
Sequence (Q21420 26-457): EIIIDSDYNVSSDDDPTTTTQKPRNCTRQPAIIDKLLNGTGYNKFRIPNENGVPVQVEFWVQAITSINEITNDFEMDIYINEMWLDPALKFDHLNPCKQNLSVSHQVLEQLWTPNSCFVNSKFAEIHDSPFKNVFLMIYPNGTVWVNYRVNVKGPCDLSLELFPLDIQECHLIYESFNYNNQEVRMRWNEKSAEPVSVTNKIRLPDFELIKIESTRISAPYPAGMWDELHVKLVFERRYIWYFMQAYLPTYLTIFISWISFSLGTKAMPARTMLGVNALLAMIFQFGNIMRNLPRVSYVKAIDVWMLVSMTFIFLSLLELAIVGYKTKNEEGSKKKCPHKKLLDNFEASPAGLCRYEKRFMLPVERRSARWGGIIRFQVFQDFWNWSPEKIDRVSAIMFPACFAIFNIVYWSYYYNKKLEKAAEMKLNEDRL
Assay: two-electrode voltage clamp, oocytes

compound smiles: CC(=O)OCC[N+](C)(C)C
unit text: µM
EC50: 19
